# Assay: molar heat capacity at constant pressure
# Particulars: 300.65 K; 101.33 kPa; Liquid; Small sample (50 mg) DSC
Quantity: molar heat capacity at constant pressure (J/K/mol)
Provide only the numeric value, understood in J/K/mol.

Some molecules with known molar heat capacity at constant pressure results, for comparison:
OCCCCCO [1,5-pentanediol] ... 234.25
OCCCO [propan-1,3-diol] ... 176.98

Req: Recorded molar heat capacity at constant pressure for OCCCCCCCO [1,7-heptanediol] , please?
Resp: 298.87

Req: Recorded molar heat capacity at constant pressure for OCCO [1,2-ethanediol] , please?
Resp: 150.48

Req: Recorded molar heat capacity at constant pressure for OCCCCO [1,4-butanediol] , please?
Resp: 204.67

----------
# Assay: molar heat capacity at constant pressure
# Particulars: 353.15 K; 101.33 kPa; Liquid; Small sample (50 mg) DSC
Quantity: molar heat capacity at constant pressure (J/K/mol)
Provide only the numeric value, understood in J/K/mol.

Some compounds with known molar heat capacity at constant pressure results, for comparison:
OCCCCCCCCCO ... 436.95
OCCCCCCO ... 317.77
OCCCO ... 202.89
OCCCCCO ... 276.46
OCCCCCCCCO ... 396.17

Req: Recorded molar heat capacity at constant pressure for OCCCCO , please?
Resp: 237.38

Req: Recorded molar heat capacity at constant pressure for OCCO , please?
Resp: 167.32

Req: Recorded molar heat capacity at constant pressure for OCCCCCCCO , please?
Resp: 354.42

----------
# Assay: molar heat capacity at constant pressure
# Particulars: 339.65 K; 101.33 kPa; Liquid; Small sample (50 mg) DSC
Parameter threshold = 300 J/K/mol. Response is criterion met when molar heat capacity at constant pressure meets or exceeds it, else criterion not met.

Solved entries:
OCCCCCCCCCO [1,9-nonanediol] ... criterion met
OCCCCCCCCO [1,8-octanediol] ... criterion met
OCCCCO [1,4-butanediol] ... criterion not met
OCCCCCCCO [1,7-heptanediol] ... criterion met
OCCO [1,2-ethanediol] ... criterion not met
OCCCO [propan-1,3-diol] ... criterion not met

For the next question, use this molecule.
Req: Does molar heat capacity at constant pressure meet or surpass 300 J/K/mol for OCCCCCO [1,5-pentanediol] ?
Resp: criterion not met

----------
# Assay: molar heat capacity at constant pressure
# Particulars: 326.15 K; 101.33 kPa; Liquid; Small sample (50 mg) DSC
Quantity: molar heat capacity at constant pressure (J/K/mol)
Provide only the numeric value, understood in J/K/mol.

Some molecules with known molar heat capacity at constant pressure results, for comparison:
OCCCCCCCCCO ... 399.62
OCCCCCCO ... 290.55
OCCCCCO ... 253.5

Req: Recorded molar heat capacity at constant pressure for OCCCCO , please?
Resp: 219.76

Req: Recorded molar heat capacity at constant pressure for OCCCCCCCO , please?
Resp: 324.12

Req: Recorded molar heat capacity at constant pressure for OCCCO , please?
Resp: 189.38

Req: Recorded molar heat capacity at constant pressure for OCCO , please?
Resp: 158.63

----------
# Assay: molar heat capacity at constant pressure
# Particulars: 309.65 K; 101.33 kPa; Liquid; Small sample (50 mg) DSC
Quantity: molar heat capacity at constant pressure (J/K/mol)
Provide only the numeric value, understood in J/K/mol.

Some molecules with known molar heat capacity at constant pressure results, for comparison:
OCCCCCCCO ... 307.41
OCCO ... 153.36
OCCCO ... 181.32
OCCCCCO ... 240.77

The record that follows has no molar heat capacity at constant pressure shown yet.
Req: Recorded molar heat capacity at constant pressure for OCCCCO , please?
Resp: 209.82
